- tested.target: peptide P2
- procedure.details: Apparent KD of lead quencher dyes with peptide P2 (quenching of pyrene fluorescence)
- experimental.setup: with 5 μM pyrene-labeled peptide P2, 100 mM Tris HCl pH 7.5, inner filter corrected

| compound | display.unit | Kd |
| --- | --- | --- |
| O=C(O)c1nn(-c2ccc(S(=O)(=O)O)cc2)c(O)c1N=Nc1ccc(S(=O)(=O)O)cc1 [D47, Tartrazine] | µM | 15 |
| O=C([O-])c1c(Cl)c(Cl)c(Cl)c(Cl)c1-c1c2cc(I)c(=O)c(I)c-2oc2c(I)c([O-])c(I)cc12.[Na+].[Na+] [D43, Rose Bengal] | µM | 7.5 |
| O=[N+]([O-])c1ccc2c(N=Nc3ccc4ccccc4c3O)c(O)cc(S(=O)(=O)[O-])c2c1.[Na+] [D18, Eriochrome Black T] | µM | 14.3 |
| Cc1cc(-c2ccc(/N=N/c3ccc4c(S(=O)(=O)O)cc(S(=O)(=O)O)c(N)c4c3O)c(C)c2)ccc1/N=N/c1ccc2c(S(=O)(=O)O)cc(S(=O)(=O)O)c(N)c2c1O [D3, Evans Blue] | µM | 2.8 |
| O=S(=O)([O-])c1ccc(N=Nc2ccc(N=Nc3c(O)c(S(=O)(=O)[O-])cc4cc(S(=O)(=O)[O-])ccc34)c(S(=O)(=O)[O-])c2)cc1.[Na+].[Na+].[Na+].[Na+] [D42, Ponceau S] | µM | 11.2 |
| Nc1c(S(=O)(=O)O)cc(Nc2ccc(Nc3nc(Cl)nc(Nc4cccc(S(=O)(=O)O)c4)n3)c(S(=O)(=O)O)c2)c2c1C(=O)c1ccccc1C2=O [D6, Reactive Blue 2] | µM | 19.6 |
| Cc1cc(-c2ccc(/N=N/c3c(S(=O)(=O)O)cc4cc(S(=O)(=O)O)cc(N)c4c3O)c(C)c2)ccc1/N=N/c1c(S(=O)(=O)O)cc2cc(S(=O)(=O)O)cc(N)c2c1O [D48, Trypan Blue] | µM | 11.9 |
| Nc1ccc(N=Nc2ccc(-c3ccc(N=Nc4c(S(=O)(=O)[O-])cc5cc(S(=O)(=O)[O-])c(N=Nc6ccccc6)c(O)c5c4N)cc3)cc2)c(N)c1.[Na+].[Na+] [D34, Chlorazol Black E] | µM | 7.7 |

* * *

- tested.target: peptide P5
- procedure.details: Apparent KD of lead quencher/peptide pair, peptide P5
- Assay type: binding
- experimental.setup: with peptide P5

| compound.structure | Kd [nM] |
| --- | --- |
| O=C([O-])c1c(Cl)c(Cl)c(Cl)c(Cl)c1-c1c2cc(I)c(=O)c(I)c-2oc2c(I)c([O-])c(I)cc12.[Na+].[Na+] | 400 |

* * *

- tested.target: peptide P5
- procedure.details: Apparent KD of lead quencher/peptide pair, peptide P5
- Assay type: binding
- experimental.setup: with unphosphorylated P5 peptide
value.type: Kd (nM)

| compound | display.unit | reported.value |
| --- | --- | --- |
| O=C([O-])c1c(Cl)c(Cl)c(Cl)c(Cl)c1-c1c2cc(I)c(=O)c(I)c-2oc2c(I)c([O-])c(I)cc12.[Na+].[Na+] [D43, Rose Bengal] | nM | 400 |

* * *

- tested.target: phosphorylated P5 peptide
- procedure.details: Apparent KD of quencher with phosphorylated P5 peptide

| compound | display.unit | Kd |
| --- | --- | --- |
| O=C([O-])c1c(Cl)c(Cl)c(Cl)c(Cl)c1-c1c2cc(I)c(=O)c(I)c-2oc2c(I)c([O-])c(I)cc12.[Na+].[Na+] [D43, Rose Bengal] | nM | 210 |

These entries and their values trace back to patent US20080318246A1.
